The values you see were collected from BigSolDB 2.1.

assay.conditions: in DMSO, 315.15 K
reported.metric: solubility (mole fraction)
Simply state the number, no unit and no words.

Lookup result for `Cc1ccccc1C(=O)O` ; measured solubility (mole fraction): 0.557

---

assay.conditions: in n-methylformamide, 312.95 K
reported.metric: solubility (mole fraction)
The reply should be a number, written without any unit.

Measured solubility (mole fraction), `Cc1ccccc1C(=O)O` : 0.343

---

assay.conditions: in acetonitrile, 332.75 K
reported.metric: solubility (mole fraction)
Write the value as a bare number.

Note to self: solubility (mole fraction) recorded for `O=C(O)c1ccccc1C(=O)O` was 0.0491

---

assay.conditions: in DMSO, 331.35 K
reported.metric: solubility (mole fraction)
Enter the number alone.

So, `O=C(O)c1ccccc1C(=O)O` ? Its solubility (mole fraction) was 0.37
